Where do the numbers come from? From paper PMC12051234.

measuredTarget: T1, LmoNrdR (Listeria monocytogenes serotype 1/2a …, UniProt Q8Y6W9 1-154)
T1 sequence: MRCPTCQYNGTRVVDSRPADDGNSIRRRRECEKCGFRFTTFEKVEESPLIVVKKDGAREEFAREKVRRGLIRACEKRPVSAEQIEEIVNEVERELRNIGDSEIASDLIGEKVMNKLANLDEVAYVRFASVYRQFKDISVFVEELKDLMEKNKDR
testSummary: MST; dATP + ATP; MST, temperature not stated. Lmo: 25 mM Bis-Tris propane pH 6.5, 100 mM KCl, 5 mM MgCl2, 5% glycerol, 1 mM DTT, 0.05% Tween 20, one nucleotide 1 mM or two at 0.5 mM each; Spn: 25 mM HEPES pH 7.2, 250 mM NaCl, 2.5 mM MgCl2, 15% glycerol, 2 mM DTT, 0.1 mg/mL BSA, 0.05% Tween 20, 0.5 mM ATP and/or dATP; Eco: 25 mM Tris pH 8.5, 100 mM NaCl, 7 mM MgCl2, 1 mM DTT, 0.025% Tween 20, 1 mM ATP + 1 mM dATP; …
experimentalConditions: protein: recombinant; tags: C-terminal His6; chain copies: 4; label: 5'-Cy5 sense; blunt
attributeMeasured: Kd (nM)

[
  {
    "binder": "Synt 12 bp spacer (dsDNA) DNA 1: GCCAAACACAACATCTAGTGGTTGGATAGGAGCACACAACATCTAGTGGACCTC DNA 2: GAGGTCCACTAGATGTTGTGTGCTCCTATCCAACCACTAGATGTTGTGTTTGGC",
    "outputUnit": "nM",
    "result": 37
  },
  {
    "binder": "Synt 16 bp spacer (dsDNA) DNA 1: GCCAAACACAACATCTAGTGGTTGGATAGCGTGAAGCACACAACATCTAGTGGACCTC DNA 2: GAGGTCCACTAGATGTTGTGTGCTTCACGCTATCCAACCACTAGATGTTGTGTTTGGC",
    "outputUnit": "nM",
    "result": 1
  },
  {
    "binder": "Synt 19 bp spacer (dsDNA) DNA 1: GCCAAACACAACATCTAGTGGTTGGATAGCGTGAAGTAGCACACAACATCTAGTGGACCTC DNA 2: GAGGTCCACTAGATGTTGTGTGCTACTTCACGCTATCCAACCACTAGATGTTGTGTTTGGC",
    "outputUnit": "nM",
    "result": 51
  },
  {
    "binder": "Synt 15 bp spacer (dsDNA) DNA 1: GCCAAACACAACATCTAGTGGTTGGATAGCGTGAGCACACAACATCTAGTGGACCTC DNA 2: GAGGTCCACTAGATGTTGTGTGCTCACGCTATCCAACCACTAGATGTTGTGTTTGGC",
    "outputUnit": "nM",
    "result": 1
  },
  {
    "binder": "Synt 18 bp spacer (dsDNA) DNA 1: GCCAAACACAACATCTAGTGGTTGGATAGCGTGAAGTGCACACAACATCTAGTGGACCTC DNA 2: GAGGTCCACTAGATGTTGTGTGCACTTCACGCTATCCAACCACTAGATGTTGTGTTTGGC",
    "outputUnit": "nM",
    "result": 3
  },
  {
    "binder": "Synt 27 bp spacer (dsDNA) DNA 1: GCCAAACACAACATCTAGTGGTTGGATAGCGTGAAGTTACCACCTAGCACACAACATCTAGTGGACCTC DNA 2: GAGGTCCACTAGATGTTGTGTGCTAGGTGGTAACTTCACGCTATCCAACCACTAGATGTTGTGTTTGGC",
    "outputUnit": "nM",
    "result": 18
  }
]
